tested on: Bacteria; test: Inhibition of bacterial L1 expressed in Escherichia coli DH10B assessed as potentiation of cefazolin-induced antibacterial activity by measuring cefazolin MIC at 32 ug/ml after 16 hrs by broth micro-dilution method (reference value: 32 ug/ml)
Measured MIC of individual entries

{"Smiles Notation": "O=C(O)c1ccc(N2C(=O)/C(=C/c3ccccn3)SC2=S)cc1", "Assayed System": "Bacteria", "MIC, µg/mL": 8}
{"Smiles Notation": "O=C(O)CN1C(=O)/C(=C/c2cccs2)SC1=S", "Assayed System": "Bacteria", "MIC, µg/mL": 8}
{"Smiles Notation": "COc1ccc(/C=C(\\S)C(=O)O)cc1", "Assayed System": "Bacteria", "MIC, µg/mL": 16}
{"Smiles Notation": "O=C(O)CN1C(=O)/C(=C/c2ccc(Cl)cc2Cl)SC1=S", "Assayed System": "Bacteria", "MIC, µg/mL": 16}
{"Smiles Notation": "O=C(O)c1ccc(N2C(=O)/C(=C/c3ccc([N+](=O)[O-])cc3[N+](=O)[O-])SC2=S)cc1", "Assayed System": "Bacteria", "MIC, µg/mL": 4}
{"Smiles Notation": "O=C(O)CN1C(=O)/C(=C/c2ccco2)SC1=S", "Assayed System": "Bacteria", "MIC, µg/mL": 8}
{"Smiles Notation": "O=C(O)CN1C(=O)/C(=C/c2ccc(F)cc2)SC1=S", "Assayed System": "Bacteria", "MIC, µg/mL": 8}
{"Smiles Notation": "COc1ccc(/C=C2\\SC(=S)N(CC(=O)O)C2=O)cc1", "Assayed System": "Bacteria", "MIC, µg/mL": 8}
{"Smiles Notation": "O=C(O)c1ccc(N2C(=O)/C(=C/c3ccc(Cl)cc3)SC2=S)cc1", "Assayed System": "Bacteria", "MIC, µg/mL": 8}
{"Smiles Notation": "O=C(O)c1ccc(N2C(=O)/C(=C/c3ccc4ccccc4c3)SC2=S)cc1", "Assayed System": "Bacteria", "MIC, µg/mL": 8}
{"Smiles Notation": "O=C(O)c1ccc(N2C(=O)/C(=C/c3ccccc3)SC2=S)cc1", "Assayed System": "Bacteria", "MIC, µg/mL": 8}

---

assay: Inhibition of bacterial VIM2 expressed in Escherichia coli BL21(DE3) using cefazolin as substrate by spectrometric method; set-up: species or system Bacteria
pIC50: −log10 of the molar value.
Classify by measured pIC50: true (1) if it is equal to or exceeds 5, false (0) if it is smaller.

{"Smiles Notation": "O=C(O)CN1C(=O)/C(=C/c2ccc(Cl)cc2)SC1=S", "Category Label": "false (0)"}
{"Smiles Notation": "O=C(O)CN1C(=O)/C(=C/c2ccc(F)cc2)SC1=S", "Category Label": "false (0)"}
{"Smiles Notation": "O=C(O)c1ccc(N2C(=O)/C(=C/c3ccc([N+](=O)[O-])cc3[N+](=O)[O-])SC2=S)cc1", "Category Label": "true (1)"}
{"Smiles Notation": "O=C(O)CN1C(=O)/C(=C/c2ccccc2[N+](=O)[O-])SC1=S", "Category Label": "false (0)"}
{"Smiles Notation": "O=C(O)c1ccc(N2C(=O)/C(=C/c3ccc(Cl)cc3)SC2=S)cc1", "Category Label": "true (1)"}
{"Smiles Notation": "O=C(O)CN1C(=O)/C(=C/c2ccc(Cl)cc2Cl)SC1=S", "Category Label": "false (0)"}
{"Smiles Notation": "O=C(O)c1ccc(N2C(=O)/C(=C/c3ccc4ccccc4c3)SC2=S)cc1", "Category Label": "true (1)"}
{"Smiles Notation": "COc1ccc(/C=C(\\S)C(=O)O)cc1", "Category Label": "true (1)"}
{"Smiles Notation": "O=C(O)c1ccc(N2C(=O)/C(=C/c3ccccn3)SC2=S)cc1", "Category Label": "true (1)"}
{"Smiles Notation": "O=C(O)c1ccc(N2C(=O)/C(=C/c3ccc(C(F)(F)F)cc3)SC2=S)cc1", "Category Label": "true (1)"}
{"Smiles Notation": "O=C(O)CN1C(=O)/C(=C/c2cccc3ccccc23)SC1=S", "Category Label": "false (0)"}
{"Smiles Notation": "O=C(O)c1ccc(N2C(=O)/C(=C/c3ccc(F)cc3)SC2=S)cc1", "Category Label": "true (1)"}
{"Smiles Notation": "O=C(O)c1ccc(N2C(=O)/C(=C/c3ccc(Cl)cc3Cl)SC2=S)cc1", "Category Label": "true (1)"}
{"Smiles Notation": "O=C(O)c1ccc(N2C(=O)/C(=C/c3ccccc3[N+](=O)[O-])SC2=S)cc1", "Category Label": "true (1)"}
